system: Bacillus spizizenii; test: Antibacterial activity against Bacillus subtilis subsp. spizizenii ATCC 6633 assessed as growth inhibition after 18 hr by CLSI broth microdilution method; assay type: functional; conditions: ATCC 6633, 18 h
Measured MIC, listed per entry for reference.

Challenge: Give the measured MIC of S=c1[nH]nc(CSc2nnc(-c3ccccc3)n2-c2ccccc2)n1Cc1ccccc1 .
Response given: > 1000 µg/mL

Challenge: I have this compound here, COc1ccc(-n2c(S)nnc2CSc2nnc(-c3ccccc3)n2-c2ccccc2)cc1 , and I need its recorded MIC.
Response given: > 1000 µg/mL

Challenge: Returns the measured MIC for the input compound. Input: C=CCn1c(CSc2nnc(-c3ccccc3)n2-c2ccccc2)n[nH]c1=S
Response given: 1000 µg/mL

Challenge: Requested read-out: MIC. Entry: COc1ccc(Cn2c(CSc3nnc(-c4ccccc4)n3-c3ccccc3)n[nH]c2=S)cc1
Response given: > 1000 µg/mL

Challenge: I'd like to know its MIC. The compound in question is Sc1nnc(CSc2nnc(-c3ccccc3)n2-c2ccccc2)n1-c1ccccc1
Response given: > 1000 µg/mL
